Data provenance is ChEMBL document CHEMBL2380222.

TESTED TARGET: Integrin alpha-5/beta-1 (Homo sapiens, UniProt P05556+P08648)
Sequence (P05556 21-798 limits assumed): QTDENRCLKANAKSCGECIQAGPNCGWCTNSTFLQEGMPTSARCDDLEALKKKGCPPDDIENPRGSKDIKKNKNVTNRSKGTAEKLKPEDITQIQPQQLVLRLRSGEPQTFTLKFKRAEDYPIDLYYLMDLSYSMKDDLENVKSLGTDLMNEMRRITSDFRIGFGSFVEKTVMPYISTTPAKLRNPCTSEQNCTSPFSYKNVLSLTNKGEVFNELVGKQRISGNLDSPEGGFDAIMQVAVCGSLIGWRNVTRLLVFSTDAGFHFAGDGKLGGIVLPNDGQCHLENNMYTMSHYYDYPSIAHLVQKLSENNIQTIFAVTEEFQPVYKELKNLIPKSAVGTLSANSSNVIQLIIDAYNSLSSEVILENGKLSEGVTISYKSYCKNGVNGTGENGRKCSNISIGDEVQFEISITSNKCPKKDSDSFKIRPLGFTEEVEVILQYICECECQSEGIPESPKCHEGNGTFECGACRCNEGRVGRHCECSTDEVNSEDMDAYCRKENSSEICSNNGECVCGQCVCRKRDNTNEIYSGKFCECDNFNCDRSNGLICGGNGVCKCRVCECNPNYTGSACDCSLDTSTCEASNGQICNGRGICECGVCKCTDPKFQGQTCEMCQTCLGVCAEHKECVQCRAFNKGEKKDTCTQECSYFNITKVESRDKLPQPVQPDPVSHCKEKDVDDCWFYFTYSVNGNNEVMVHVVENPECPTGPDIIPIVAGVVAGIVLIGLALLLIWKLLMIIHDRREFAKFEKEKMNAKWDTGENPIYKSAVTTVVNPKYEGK
Sequence (P08648 42-894 limits assumed): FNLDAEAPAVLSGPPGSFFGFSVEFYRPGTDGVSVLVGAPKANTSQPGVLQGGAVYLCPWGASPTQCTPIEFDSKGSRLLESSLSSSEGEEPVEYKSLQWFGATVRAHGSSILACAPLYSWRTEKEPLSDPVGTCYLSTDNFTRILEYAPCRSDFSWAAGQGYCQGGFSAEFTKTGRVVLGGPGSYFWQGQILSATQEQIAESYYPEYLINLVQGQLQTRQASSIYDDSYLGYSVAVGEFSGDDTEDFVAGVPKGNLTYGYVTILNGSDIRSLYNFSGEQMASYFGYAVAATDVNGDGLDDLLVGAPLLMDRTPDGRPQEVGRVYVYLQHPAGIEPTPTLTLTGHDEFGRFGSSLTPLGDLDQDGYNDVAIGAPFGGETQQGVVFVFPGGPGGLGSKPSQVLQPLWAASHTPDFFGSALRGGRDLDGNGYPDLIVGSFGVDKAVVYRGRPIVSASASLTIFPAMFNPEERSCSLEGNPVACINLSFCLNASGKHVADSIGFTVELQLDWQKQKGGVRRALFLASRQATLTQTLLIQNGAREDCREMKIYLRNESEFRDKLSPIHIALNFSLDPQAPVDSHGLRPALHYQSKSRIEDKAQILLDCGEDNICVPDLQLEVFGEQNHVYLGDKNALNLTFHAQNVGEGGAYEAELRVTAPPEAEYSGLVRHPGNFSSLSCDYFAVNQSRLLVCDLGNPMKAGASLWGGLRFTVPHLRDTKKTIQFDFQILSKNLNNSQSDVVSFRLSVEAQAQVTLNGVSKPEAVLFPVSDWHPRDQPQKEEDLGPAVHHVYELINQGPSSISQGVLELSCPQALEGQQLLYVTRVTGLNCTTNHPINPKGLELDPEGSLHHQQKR
Sequence (P08648 895-1049 limits assumed): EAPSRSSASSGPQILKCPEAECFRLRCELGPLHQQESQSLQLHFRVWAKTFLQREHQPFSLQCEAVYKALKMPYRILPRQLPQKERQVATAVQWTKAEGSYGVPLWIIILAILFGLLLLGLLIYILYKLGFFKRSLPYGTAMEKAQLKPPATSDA
METHOD SUMMARY: Inhibition of integrin alpha5beta1 (unknown origin) binding to fibronectin in human THP1 cells after 30 mins by fibronectin mediated cell adhesion assay
pIC50: −log10 of the molar value.
OBSERVABLE: pIC50

Request: For the compound C#CCN(c1cnc(N(CC)CC)nc1N[C@@H](Cc1ccc(OC(=O)N2CCCC2)cc1)C(=O)O)S(=O)(=O)c1ccc(F)cc1 , report pIC50.
Result: < 4.52

----------
Kindly state concentration at 12 h for each of the entries shown.
METHOD SUMMARY: Plasma concentration in po dosed Sprague-Dawley rat after 12 hrs
Assay type: ADME, organism-based
One number for each entry, in ng/mL.

# STRUCTURE AS SMILES, MEASURED RESULT
rows = [
    ("CCN(CC)c1ncc(N(C)S(=O)(=O)c2ccc(F)cc2F)c(N[C@@H](Cc2ccc(OC(=O)N3CCCC3)cc2)C(=O)O)n1", 100),
]

Give measured concentration at 12 h for every item shown.
1. CCN(CC)c1ncc(N(CC)S(=O)(=O)c2ccc(Cl)cc2)c(N[C@@H](Cc2ccc(OC(=O)N(C)C)cc2)C(=O)O)n1
2. CCN(CC)c1ncc(N(C)S(=O)(=O)c2ccc(Cl)cc2)c(N[C@@H](Cc2ccc(OC(=O)N3CCCC3)cc2)C(=O)O)n1
3. CCN(CC)c1ncc(N(CC)S(=O)(=O)c2ccc(F)c(F)c2)c(N[C@@H](Cc2ccc(OC(=O)N(C)C)cc2)C(=O)O)n1

Result:
[12, 330, 8]

----------
METHOD SUMMARY: Oral bioavailability in Sprague-Dawley rat
Type: ADME, organism-based
ASSAY SETUP: in vivo
OBSERVABLE: bioavailability (%)
Give bare numbers, in %.

The following compounds have reported results that may help.
# STRUCTURE AS SMILES, OUTPUT UNIT, bioavailability
data = [
    ("CCN(CC)c1ncc(N(CC)S(=O)(=O)c2ccc(F)cc2)c(N[C@@H](Cc2ccc(OC(=O)N3CCC3)cc2)C(=O)O)n1", "%", 16),
    ("CCN(CC)c1ncc(N(CC)S(=O)(=O)c2ccc(F)c(F)c2)c(N[C@@H](Cc2ccc(OC(=O)N(C)C)cc2)C(=O)O)n1", "%", 24),
    ("CCN(CC)c1ncc(N(CC)S(=O)(=O)c2ccc(F)cc2F)c(N[C@@H](Cc2ccc(OC(=O)N3CCCC3)cc2)C(=O)O)n1", "%", 34),
    ("CCN(CC)c1ncc(N(C)S(=O)(=O)c2ccc(C)cc2)c(N[C@@H](Cc2ccc(OC(=O)N(C)C)cc2)C(=O)O)n1", "%", 15),
    ("C#CCN(c1cnc(N(CC)CC)nc1N[C@@H](Cc1ccc(OC(=O)N2CCCC2)cc1)C(=O)O)S(=O)(=O)c1ccc(F)cc1F", "%", 33),
]

Fill in bioavailability for each of the 4 compounds listed.
1. CCN(CC)c1ncc(N(C)S(=O)(=O)c2ccc(Cl)cc2)c(N[C@@H](Cc2ccc(OC(=O)N3CCCC3)cc2)C(=O)O)n1
2. CCN(CC)c1ncc(N(C)S(=O)(=O)c2ccc(F)cc2F)c(N[C@@H](Cc2ccc(OC(=O)N3CCCC3)cc2)C(=O)O)n1
3. CCN(CC)c1ncc(N(C)S(=O)(=O)c2ccc(C)cc2)c(N[C@@H](Cc2ccc(OC(=O)N3CCCC3)cc2)C(=O)O)n1
4. CCN(CC)c1ncc(N(CC)S(=O)(=O)c2ccc(F)cc2)c(N[C@@H](Cc2ccc(OC(=O)N(C)C)cc2)C(=O)O)n1

Result:
33
17
43
44

----------
METHOD SUMMARY: Plasma concentration in po dosed Sprague-Dawley rat after 6 hrs
Assay type: ADME, organism-based
OBSERVABLE: concentration at 6 h (ng/mL)
One number for each entry, in ng/mL.

Request: Answer with reported concentration at 6 h of CCN(CC)c1ncc(N(C)S(=O)(=O)c2ccc(C)cc2)c(N[C@@H](Cc2ccc(OC(=O)N(C)C)cc2)C(=O)O)n1
Result: 100

----------
So I've got a bunch of compounds here, and I need their AUC values.
METHOD SUMMARY: AUC in iv dosed Sprague-Dawley rat
Type: ADME, organism-based
ASSAY SETUP: plasma
Numbers only, in µg·h/mL.

Answer for every listed entry: what is its AUC? The entries follow.
1. C#CCN(c1cnc(N(CC)CC)nc1N[C@@H](Cc1ccc(OC(=O)N2CCCC2)cc1)C(=O)O)S(=O)(=O)c1ccc(F)cc1F
2. CCN(CC)c1ncc(N(CC)S(=O)(=O)c2ccc(Cl)cc2)c(N[C@@H](Cc2ccc(OC(=O)N3CCCC3)cc2)C(=O)O)n1
3. CCN(CC)c1ncc(N(C)S(=O)(=O)c2ccc(F)cc2)c(N[C@@H](Cc2ccc(OC(=O)N(C)C)cc2)C(=O)O)n1

Result:
[126, 110, 27]

----------
METHOD SUMMARY: Plasma concentration in po dosed Sprague-Dawley rat after 12 hrs
Format: ADME, organism-based
Provide the reported concentration at 12 h of each item.
Answers are plain numbers, in ng/mL.

Some molecules with recorded concentration at 12 h:
# STRUCTURE AS SMILES, OUTPUT UNIT, concentration at 12 h
rows = [
    ("C#CCN(c1cnc(N(CC)CC)nc1N[C@@H](Cc1ccc(OC(=O)N2CCCC2)cc1)C(=O)O)S(=O)(=O)c1ccc(F)cc1", "ng/mL", 1310),
    ("CCN(CC)c1ncc(N(CC)S(=O)(=O)c2ccc(F)cc2F)c(N[C@@H](Cc2ccc(OC(=O)N3CCCC3)cc2)C(=O)O)n1", "ng/mL", 50),
    ("CCN(CC)c1ncc(N(CC)S(=O)(=O)c2ccc(F)cc2)c(N[C@@H](Cc2ccc(OC(=O)N(C)C)cc2)C(=O)O)n1", "ng/mL", 60),
    ("CCN(CC)c1ncc(N(CC)S(=O)(=O)c2ccc(Cl)cc2)c(N[C@@H](Cc2ccc(OC(=O)N3CCCC3)cc2)C(=O)O)n1", "ng/mL", 100),
    ("CCN(CC)c1ncc(N(C)S(=O)(=O)c2ccc(F)cc2)c(N[C@@H](Cc2ccc(OC(=O)N(C)C)cc2)C(=O)O)n1", "ng/mL", 120),
]

Hi, could you look up concentration at 12 h for each item in my list?
1. C#CCN(c1cnc(N(CC)CC)nc1N[C@@H](Cc1ccc(OC(=O)N2CCCC2)cc1)C(=O)O)S(=O)(=O)c1ccc(F)cc1F
2. CCN(CC)c1ncc(N(C)S(=O)(=O)c2ccc(C)cc2)c(N[C@@H](Cc2ccc(OC(=O)N3CCCC3)cc2)C(=O)O)n1

Result:
1. 120
2. 450

----------
Exercise: for every item that follows, state its recorded log10 AUC.
METHOD SUMMARY: AUC in po dosed Sprague-Dawley rat
Assay type: ADME, organism-based
ASSAY SETUP: plasma
All values: base-10 log of AUC in ng·h/mL.

Recorded log10 AUC, per entry:
# STRUCTURE AS SMILES, MEASURED RESULT
data = [
    ("CCN(CC)c1ncc(N(C)S(=O)(=O)c2ccc(Cl)cc2)c(N[C@@H](Cc2ccc(OC(=O)N(C)C)cc2)C(=O)O)n1", 4.36),
    ("CCN(CC)c1ncc(N(C)S(=O)(=O)c2ccc(C)cc2)c(N[C@@H](Cc2ccc(OC(=O)N3CCCC3)cc2)C(=O)O)n1", 4.87),
    ("CCN(CC)c1ncc(N(CC)S(=O)(=O)c2ccc(F)cc2)c(N[C@@H](Cc2ccc(OC(=O)N3CCC3)cc2)C(=O)O)n1", 3.78),
    ("CCN(CC)c1ncc(N(CC)S(=O)(=O)c2ccc(F)cc2F)c(N[C@@H](Cc2ccc(OC(=O)N3CCCC3)cc2)C(=O)O)n1", 4.45),
    ("C#CCN(c1cnc(N(CC)CC)nc1N[C@@H](Cc1ccc(OC(=O)N2CCCC2)cc1)C(=O)O)S(=O)(=O)c1ccc(F)cc1F", 4.62),
    ("CCN(CC)c1ncc(N(CC)S(=O)(=O)c2ccc(Cl)cc2)c(N[C@@H](Cc2ccc(OC(=O)N(C)C)cc2)C(=O)O)n1", 3.71),
]

Field: log10 AUC. Fill in for each record below.
1. CCN(CC)c1ncc(N(C)S(=O)(=O)c2ccc(F)cc2)c(N[C@@H](Cc2ccc(OC(=O)N(C)C)cc2)C(=O)O)n1
2. CCN(CC)c1ncc(N(C)S(=O)(=O)c2ccc(C)cc2)c(N[C@@H](Cc2ccc(OC(=O)N(C)C)cc2)C(=O)O)n1
3. CCN(CC)c1ncc(N(CC)S(=O)(=O)c2ccc(F)c(F)c2)c(N[C@@H](Cc2ccc(OC(=O)N(C)C)cc2)C(=O)O)n1

Result:
4.30
3.78
3.62

----------
METHOD SUMMARY: Oral bioavailability in Sprague-Dawley rat
Type: ADME, organism-based
ASSAY SETUP: in vivo
OBSERVABLE: bioavailability
Express your answer as a number followed by its unit.

# STRUCTURE AS SMILES, MEASURED RESULT
measured = [
    ("CCN(CC)c1ncc(N(CC)S(=O)(=O)c2ccc(Cl)cc2)c(N[C@@H](Cc2ccc(OC(=O)N(C)C)cc2)C(=O)O)n1", "33%"),
]

Working through the 5 compounds below one at a time, give bioavailability for each.
1. CCN(CC)c1ncc(N(C)S(=O)(=O)c2ccc(F)cc2)c(N[C@@H](Cc2ccc(OC(=O)N(C)C)cc2)C(=O)O)n1
2. C#CCN(c1cnc(N(CC)CC)nc1N[C@@H](Cc1ccc(OC(=O)N2CCCC2)cc1)C(=O)O)S(=O)(=O)c1ccc(F)cc1
3. CCN(CC)c1ncc(N(C)S(=O)(=O)c2ccc(Cl)cc2)c(N[C@@H](Cc2ccc(OC(=O)N(C)C)cc2)C(=O)O)n1
4. CCN(CC)c1ncc(N(CC)S(=O)(=O)c2ccc(F)cc2)c(N[C@@H](Cc2ccc(OC(=O)N3CCCC3)cc2)C(=O)O)n1
5. CCN(CC)c1ncc(N(CC)S(=O)(=O)c2ccc(Cl)cc2)c(N[C@@H](Cc2ccc(OC(=O)N3CCCC3)cc2)C(=O)O)n1

Result:
["74%", "56%", "73%", "46%", "31%"]
